Tested on: A549
measurement-protocol: Cytotoxicity against human A549 cells after 24 hrs by MTT assay
Type: functional, cell-based
condition-details: A549, 24 h
Listed next: entries and their corresponding IC50.

- chemical-smiles: "COc1cc([C@@H]2c3cc4c(cc3[C@@H](NC(=O)COc3c(OC)cc(/C=C5\\Oc6c(OC)cccc6C5=O)cc3OC)[C@H]3COC(=O)[C@H]23)OCO4)cc(OC)c1OC"
  IC50 [nM]: 1450
- chemical-smiles: "COc1cc(/C=C2\\Oc3c(OC)cccc3C2=O)ccc1OCC(=O)N[C@@H]1c2cc3c(cc2[C@@H](c2cc(OC)c(OC)c(OC)c2)[C@H]2C(=O)OC[C@@H]21)OCO3"
  IC50 [nM]: 2990
- chemical-smiles: "COc1cc(/C=C2\\Oc3ccccc3C2=O)ccc1OCC(=O)N[C@@H]1c2cc3c(cc2[C@@H](c2cc(OC)c(OC)c(OC)c2)[C@H]2C(=O)OC[C@@H]21)OCO3"
  IC50 [nM]: 2750
- chemical-smiles: "COc1cc([C@@H]2c3cc4c(cc3[C@@H](NC(=O)COc3ccc(/C=C5\\Oc6ccccc6C5=O)cc3)[C@H]3COC(=O)[C@H]23)OCO4)cc(OC)c1OC"
  IC50 [nM]: 100
- chemical-smiles: "COc1cc([C@@H]2c3cc4c(cc3[C@@H](NC(=O)COc3ccc(/C=C5\\Oc6c(OC)cccc6C5=O)cc3)[C@H]3COC(=O)[C@H]23)OCO4)cc(OC)c1OC"
  IC50 [nM]: 1560
- chemical-smiles: "COc1ccc(/C=C2\\Oc3ccccc3C2=O)cc1OCC(=O)N[C@@H]1c2cc3c(cc2[C@@H](c2cc(OC)c(OC)c(OC)c2)[C@H]2C(=O)OC[C@@H]21)OCO3"
  IC50 [nM]: 7230
